The values you see were collected from patent US9206125B2.

Reported melting point values for a set of compounds

Consider the following illustrative entries.
> print(dat)
                                   compound         meas.value
1  Cc1cc(S(=O)(=O)N2CC(C)CC(C)C2)ccc1[N+](=O)[O-] (stereo not shown)  132.7 to 138.5 °C
2  Cc1cc(C(=O)N(Cc2ccccc2)Cc2ccccc2)ccc1[N+](=O)[O-] [NCR-18, N,N-Dibenzyl-3-Methyl-4-Nitrobenzamide]  105.8 to 108.7 °C
3  Cc1cc(C(=O)NC2CCCCC2)ccc1[N+](=O)[O-] [NCR-22, N-Cyclohexyl-3-Methyl-4-Nitrobenzamide]    134.2 to 141 °C

Read the next record carefully.
Input: Consider the compound Cc1cc(C(=O)N2CCCCC2)ccc1[N+](=O)[O-] and give its recorded melting point.
Output: 71.7 to 72.2 °C

###

# key: entry, value: melting point

For orientation, consider the following solved cases.
> print(dat)
                                   compound         meas.value
1  Cc1cc(C(=O)N2CCCC(C)C2)ccc1[N+](=O)[O-] (stereo not drawn)      82 to 82.8 °C
2  CCN(CC)C(=O)c1ccc([N+](=O)[O-])c(C)c1 [NCR-9, N,N-Diethyl-3 Methyl-4-Nitrobenzamide]      74.5 to 76 °C
3       Cc1cc(C(=O)N2CCCC2)ccc1[N+](=O)[O-]    61.3 to 61.9 °C
4  Cc1cc(C(=O)N(C(C)C)C(C)C)ccc1[N+](=O)[O-]  107.6 to 109.7 °C
5  CC1CC(C)CN(C(=O)c2ccccc2)C1 (stereo not drawn)  107.2 to 108.7 °C

Input: Note melting point for the compound shown: CC1CC(C)CN(C(=O)c2ccc([N+](=O)[O-])cc2)C1 (stereo not drawn)
Output: 120 to 125 °C

Input: Check the records and state melting point for CC1CCCN(C(=O)c2ccc([N+](=O)[O-])cc2)C1 (stereo not drawn)
Output: 70.2 to 71.3 °C

Input: Supply measured melting point of CC1CC(C)CN(C(=O)c2ccc(Cl)cc2)C1 (stereo not drawn) in your reply.
Output: 113.5 to 115.4 °C

Input: Indicate the recorded melting point value for this compound: Cc1cc(C(=O)N2C(C)CCCC2C)ccc1[N+](=O)[O-] (stereo not drawn)
Output: 99.7 to 100.5 °C
